From: patent US4294833A

ED50: recorded values
# Test system: platelet aggregation induced by thrombin
# TEST_PROTOCOL: Platelet aggregation inhibitory activity in vivo (Born aggregometer), thrombin-induced
# Set-up: species or system New Zealand rabbits
# ASSAY_SETUP: Oryctolagus cuniculus, Platelet, ip, dose for 50% inhibition of thrombin-induced aggregation curve; rabbits, intraperitoneal, blood 2, 4 and 6 hours after injection; read-out: platelet antiaggregant activity (AAP), DI50, Thrombin
TEST_READOUT: ED50 (mg/kg)

SAMPLE_SMILES	TEST_READOUT	UNIT_OF_MEASURE	RESULT_VALUE
CC(C)(C)COc1c(Cl)cc(C(=O)NCc2cccnc2)cc1C(=O)NCc1cccnc1	ED50	mg/kg	31
CCCCCOc1c(Cl)cc(C(=O)NCc2cccnc2)cc1C(=O)NCc1cccnc1	ED50	mg/kg	35.6
CC=COc1c(Cl)cc(C(=O)N(Cc2cccnc2)CC(C)(C)C)cc1C(=O)N(Cc1cccnc1)CC(C)(C)C	ED50	mg/kg	31.9
CC(C)=COc1ccc(C(=O)NCc2ccncc2)cc1C(=O)NCc1ccncc1	ED50	mg/kg	24.5
CCCCOc1c(Cl)cc(C(=O)NCc2cccnc2)cc1C(=O)NCc1cccnc1	ED50	mg/kg	30.2
CC=CCOc1ccc(C(=O)N(C)Cc2ccncc2)cc1C(=O)N(C)Cc1ccncc1	ED50	mg/kg	19.3
C=CCCCCOc1ccc(C(=O)NCc2cccnc2)cc1C(=O)NCc1cccnc1	ED50	mg/kg	21.1
C=CCOc1c(C(=O)NCc2cccnc2)cc(C(=O)NCc2cccnc2)cc1[N+](=O)[O-]	ED50	mg/kg	27.1
CCCOc1ccc(C(=O)NCc2cccnc2)cc1C(=O)NCc1cccnc1	ED50	mg/kg	19.3
C=CCOc1c(Cl)cc(C(=O)NCc2cccnc2)cc1C(=O)NCc1cccnc1	ED50	mg/kg	35.4
COc1c(Cl)cc(C(=O)N(Cc2ccncc2)C(C)C)cc1C(=O)N(Cc1ccncc1)C(C)C	ED50	mg/kg	19.6
COc1ccc(C(=O)NCc2ccncc2)cc1C(=O)NCc1ccncc1	ED50	mg/kg	21.3
CC(C)Oc1ccc(C(=O)NCc2ccncc2)cc1C(=O)NCc1ccncc1	ED50	mg/kg	32.3
CC=COc1c(Cl)cc(C(=O)N(Cc2cccnc2)C(CC)CC)cc1C(=O)N(Cc1cccnc1)C(CC)CC	ED50	mg/kg	33.8
